Target: Aldo-keto reductase family 1 member C2 (Homo sapiens, UniProt P52895)
Sequence (P52895 whole entry): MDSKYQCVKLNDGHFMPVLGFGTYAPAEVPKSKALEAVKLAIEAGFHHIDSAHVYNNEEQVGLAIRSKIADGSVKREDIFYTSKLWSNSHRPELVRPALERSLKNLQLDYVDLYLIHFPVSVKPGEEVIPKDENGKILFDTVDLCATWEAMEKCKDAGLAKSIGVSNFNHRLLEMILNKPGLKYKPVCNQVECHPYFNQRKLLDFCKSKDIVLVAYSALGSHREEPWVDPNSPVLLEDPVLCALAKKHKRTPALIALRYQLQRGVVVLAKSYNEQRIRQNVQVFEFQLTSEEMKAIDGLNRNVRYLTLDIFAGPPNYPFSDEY
Test: Inhibition of recombinant AKR1C2 (unknown origin) after 1 hr by competitive fluorescence assay
The compounds listed here are annotated with their IC50.

SUBSTANCE SMILES | ASSAYED SYSTEM | IC50
O=C(N1CCOCC1)N1CCN(c2cnc3ccccc3c2)CC1 | Aldo-keto reductase family 1 member C2 (Homo sapiens, UniProt P52895) | > 30 µM
O=C(N1CCOCC1)N1CCN(c2ccc(Br)cn2)CC1 | Aldo-keto reductase family 1 member C2 (Homo sapiens, UniProt P52895) | > 30 µM

Now for the compound whose IC50 we want.
Inquiry: So what's the measured IC50 for this one? CS(=O)(=O)c1ccc(N2CCN(C(=O)N3CCOCC3)CC2)cc1
Reply text: > 30 µM
